Values compiled from patent US5935805A.

target: albumin (Homo sapiens, UniProt P02768); experiment: Bilirubin-albumin binding isotherm in minimally diluted newborn plasma titrated with bilirubin; design: Plasma from a partial exchange transfusion performed in a term newborn with polycythemia; from tissue; host or cells: plasma of a term newborn (partial exchange transfusion); conditions: dilution 1:1.8, two-site model, non-linear regression, read-out: Equilibrium dissociation constant, 2:1 bilirubin/albumin species
Sequence (P02768 25-609): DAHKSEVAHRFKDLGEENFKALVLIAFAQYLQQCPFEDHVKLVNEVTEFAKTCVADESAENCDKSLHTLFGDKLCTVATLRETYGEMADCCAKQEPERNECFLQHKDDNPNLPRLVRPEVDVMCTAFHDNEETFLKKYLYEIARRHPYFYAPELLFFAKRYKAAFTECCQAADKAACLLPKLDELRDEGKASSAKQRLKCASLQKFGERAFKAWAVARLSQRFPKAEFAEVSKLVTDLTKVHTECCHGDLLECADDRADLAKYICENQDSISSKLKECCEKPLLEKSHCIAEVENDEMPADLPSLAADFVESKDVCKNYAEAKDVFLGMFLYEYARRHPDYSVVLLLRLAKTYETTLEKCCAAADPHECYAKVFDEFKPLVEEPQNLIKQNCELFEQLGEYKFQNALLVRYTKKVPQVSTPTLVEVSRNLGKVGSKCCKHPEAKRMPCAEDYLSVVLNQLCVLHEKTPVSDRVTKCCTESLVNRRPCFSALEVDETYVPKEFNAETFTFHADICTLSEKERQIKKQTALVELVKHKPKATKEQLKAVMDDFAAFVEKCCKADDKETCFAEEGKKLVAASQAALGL
Assay readout: Kd (nM)
Give bare numbers, in nM.

Q) Give the reported Kd for this molecule. C=CC1=C(C)/C(=C/c2[nH]c(Cc3[nH]c(/C=C4\NC(=O)C(C)=C4C=C)c(C)c3CCC(=O)O)c(CCC(=O)O)c2C)NC1=O [bilirubin, bilirubin IXa]
A) 30.3
